Documented Ki across a set of molecules
- Study target: Mu-type opioid receptor (Rattus norvegicus)
- Sequence (P33535 whole entry): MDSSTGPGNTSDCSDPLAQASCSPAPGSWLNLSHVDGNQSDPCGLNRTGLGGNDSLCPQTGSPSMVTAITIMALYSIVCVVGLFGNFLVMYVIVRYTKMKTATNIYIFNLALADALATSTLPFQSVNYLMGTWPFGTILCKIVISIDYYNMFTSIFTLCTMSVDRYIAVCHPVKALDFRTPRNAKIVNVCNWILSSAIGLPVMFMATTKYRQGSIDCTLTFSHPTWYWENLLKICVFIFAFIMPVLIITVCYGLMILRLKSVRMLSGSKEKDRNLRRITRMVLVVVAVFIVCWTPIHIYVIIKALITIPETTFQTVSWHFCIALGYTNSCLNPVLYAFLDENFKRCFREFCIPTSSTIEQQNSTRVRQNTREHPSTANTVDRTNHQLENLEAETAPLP
- Assay protocol: Displacement of [3H]-diprenorphine from rat mu-opioid receptor in expressed in rat C6 cell membranes after 1 hr
Metric: Ki (nM)

[[record]]
smiles_code = "C[C@H]1CN(CCOC(=O)[C@H]2Cc3ccc(O)cc3CN2)CC[C@@]1(C)c1cccc(O)c1"
value_reported = 97.7

[[record]]
smiles_code = "C[C@H]1CN(CCCOC(=O)[C@H]2Cc3ccc(O)cc3CN2)CC[C@@]1(C)c1cccc(O)c1"
value_reported = 93


###

- Study target: Kappa-type opioid receptor (Cavia porcellus, UniProt P41144)
- Sequence (P41144 whole entry): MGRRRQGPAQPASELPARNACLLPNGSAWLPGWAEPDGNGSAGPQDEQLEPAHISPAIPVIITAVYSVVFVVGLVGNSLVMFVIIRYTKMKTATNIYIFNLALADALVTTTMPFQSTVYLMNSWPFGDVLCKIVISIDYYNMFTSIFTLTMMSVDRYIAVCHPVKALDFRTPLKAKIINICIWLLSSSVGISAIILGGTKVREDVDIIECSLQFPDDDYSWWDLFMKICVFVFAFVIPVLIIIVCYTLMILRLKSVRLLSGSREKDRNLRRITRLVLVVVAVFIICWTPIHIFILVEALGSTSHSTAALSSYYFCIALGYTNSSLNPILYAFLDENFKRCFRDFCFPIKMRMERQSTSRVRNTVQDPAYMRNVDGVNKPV
pKi: −log10 of the molar value.
Metric: pKi

[[record]]
smiles_code = "CC(=O)N1Cc2cc(O)ccc2C[C@@H]1C(=O)N[C@H](CN1CC[C@@](C)(c2cccc(O)c2)[C@@H](C)C1)C(C)C"
value_reported = 6.79


###

- Study target: Mu-type opioid receptor (Homo sapiens, UniProt P35372)
- Sequence (P35372 whole entry): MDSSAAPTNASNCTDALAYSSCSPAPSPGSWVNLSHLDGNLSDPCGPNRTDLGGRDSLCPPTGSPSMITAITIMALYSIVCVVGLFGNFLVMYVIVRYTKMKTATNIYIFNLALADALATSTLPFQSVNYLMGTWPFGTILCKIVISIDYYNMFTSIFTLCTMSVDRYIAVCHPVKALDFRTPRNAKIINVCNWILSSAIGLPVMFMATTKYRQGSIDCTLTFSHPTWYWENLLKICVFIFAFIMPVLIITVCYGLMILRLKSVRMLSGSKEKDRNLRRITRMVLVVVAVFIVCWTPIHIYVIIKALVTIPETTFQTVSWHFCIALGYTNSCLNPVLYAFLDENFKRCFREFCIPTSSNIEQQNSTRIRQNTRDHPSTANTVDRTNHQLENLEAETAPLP
- Assay protocol: Antagonist activity at human mu opioid receptor expressed in CHO cells assessed as stimulation of [35S]GTPgammaS
pKi: −log10 of the molar value.
Metric: pKi

[[record]]
molecule = "CCCCC(=N)NCCc1ccc2c(c1)C1C[C@@]3(O)[C@H]4Cc5ccc(O)c6c5[C@@]3(CCN4CC3CC3)[C@@H](O6)C1N2 (stereo partly specified)"
value_reported = 8.27


###

- Study target: Delta-type opioid receptor (Homo sapiens)
- Sequence (P41143 whole entry): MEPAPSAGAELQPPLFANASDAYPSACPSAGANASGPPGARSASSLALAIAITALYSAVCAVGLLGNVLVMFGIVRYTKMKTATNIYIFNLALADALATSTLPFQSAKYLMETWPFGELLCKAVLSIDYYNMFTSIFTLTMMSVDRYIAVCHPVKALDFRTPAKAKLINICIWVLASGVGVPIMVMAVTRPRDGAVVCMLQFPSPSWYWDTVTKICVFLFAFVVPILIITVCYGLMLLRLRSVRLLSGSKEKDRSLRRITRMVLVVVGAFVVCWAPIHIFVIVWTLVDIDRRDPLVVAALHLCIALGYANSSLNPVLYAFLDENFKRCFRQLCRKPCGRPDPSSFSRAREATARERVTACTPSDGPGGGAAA
- Assay protocol: Antagonist activity at human delta opioid receptor expressed in CHO cells assessed as stimulation of [35S]GTPgammaS
pKi: −log10 of the molar value.
Metric: pKi

[[record]]
molecule = "CCCCC(=N)NCCc1ccc2c(c1)C1C[C@@]3(O)[C@H]4Cc5ccc(O)c6c5[C@@]3(CCN4CC3CC3)[C@@H](O6)C1N2 (stereo partly specified)"
metric = "pKi"
value_reported = 8.48


###

- Study target: Mu-type opioid receptor (Rattus norvegicus)
- Assay protocol: Displacement of [3H]DAMGO from mu-opioid receptor in rat brain membranes after 2 hrs
- Format: cell membranes, Membrane
pKi: −log10 of the molar value.
Metric: pKi

[[record]]
smiles_code = "CC(C)[C@@H](CN1CC[C@@](C)(c2cccc(O)c2)[C@@H](C)C1)NC(=O)[C@H]1Cc2ccc(O)cc2CN1"
value_reported = 8.67

